SYSTEM: Neutrophil elastase (Homo sapiens) (UniProt P08246)
Sequence (whole entry): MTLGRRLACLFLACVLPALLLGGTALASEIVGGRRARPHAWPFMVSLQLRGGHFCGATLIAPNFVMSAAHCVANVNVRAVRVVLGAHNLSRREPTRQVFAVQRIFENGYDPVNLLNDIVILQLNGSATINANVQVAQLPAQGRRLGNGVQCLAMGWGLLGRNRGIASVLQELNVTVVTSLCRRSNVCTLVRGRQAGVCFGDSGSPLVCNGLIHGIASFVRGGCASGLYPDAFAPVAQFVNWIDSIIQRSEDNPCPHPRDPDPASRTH
ASSAY_INFO: Inhibition of human leukocyte elastase at 25 uM assessed as Kinact/Ki ratio incubated for 15 mins by spectrofluorometry
PARAMETER_MEASURED: Ratio
Answer with the value and then the unit.

compound="CCc1ccc(OP(=O)(Oc2ccc(CC)cc2)C(C)NC(=O)[C@@H]2CCCN2C(=O)[C@@H](NC(=O)OC(C)(C)C)C(C)C)cc1 (mixture of isomers)" parameter_measured=Ratio result="870 M⁻¹ s⁻¹"
compound=CSc1ccc(OP(=O)(Oc2ccc(SC)cc2)[C@H](NC(=O)[C@@H]2CCCN2C(=O)[C@@H](NC(=O)COc2ccc(OCC(=O)O)cc2)C(C)C)C(C)C)cc1 parameter_measured=Ratio result="1550 M⁻¹ s⁻¹"

As a next step, examine the compound that follows.
Recorded Ratio (compound CCC(NC(=O)[C@@H]1CCCN1C(=O)[C@@H](NC(=O)OC(C)(C)C)C(C)C)P(=O)(Oc1ccc(C)c(C)c1)Oc1ccc(C)c(C)c1 (mixture of isomers) ): 460 M⁻¹ s⁻¹

----------
ASSAY_INFO: Inhibition of chymotrypsin at 25 uM assessed as Kinact/Ki ratio incubated for 15 mins by spectrofluorometry
Kindly state Ratio for each of the entries shown.

The examples below pair each entry with its known result.
compound=CSc1ccc(OP(=O)(Oc2ccc(SC)cc2)[C@@H](NC(=O)[C@@H]2CCCN2C(=O)[C@@H](NC(=O)OC(C)(C)C)C(C)C)C(C)C)cc1 result="850 M⁻¹ s⁻¹"
compound="CSc1ccc(OP(=O)(Oc2ccc(SC)cc2)C(C)NC(=O)[C@@H]2CCCN2C(=O)[C@@H](NC(=O)OC(C)(C)C)C(C)C)cc1 (mixture of isomers)" result="< 50 M⁻¹ s⁻¹"

As a next step, examine the compound that follows.
Recorded Ratio (compound CCC(NC(=O)[C@@H]1CCCN1C(=O)[C@@H](NC(=O)OC(C)(C)C)C(C)C)P(=O)(Oc1ccc(OC)cc1)Oc1ccc(OC)cc1 (mixture of isomers) ): < 50 M⁻¹ s⁻¹

----------
ASSAY_INFO: Drug degradation in pH 7.4 PBS buffer assessed as compound hydrolysis at […] measured after 48 hrs at 37 degC by HPLC
Format: physicochemical
ASSAY_CONTEXT: read-out: Drug degradation
PARAMETER_MEASURED: degraded at 48 h (%)
Numbers only, in %.

Recorded degraded at 48 h (compound CSc1ccc(OP(=O)(Oc2ccc(SC)cc2)C(NC(=O)[C@@H]2CCCN2C(=O)[C@@H](NC(=O)COc2ccc(OCC(=O)O)cc2)C(C)C)C(C)C)cc1 (mixture of isomers) ): 16

----------
Kindly state Ratio for each of the entries shown.
SYSTEM: Pancreatic elastase (Sus scrofa) (UniProt P08419+P00772)
ASSAY_INFO: Inhibition of porcine pancreatic elastase at 25 uM assessed as Kinact/Ki ratio incubated for 15 mins by spectrofluorometry
Type: protein assay
Give bare numbers, in M⁻¹ s⁻¹.

compound="CCCC(NC(=O)[C@@H]1CCCN1C(=O)[C@@H](NC(=O)OC(C)(C)C)C(C)C)P(=O)(Oc1ccccc1)Oc1ccccc1 (mixture of isomers)" quantitative_readout=10900
compound="CCC(NC(=O)[C@@H]1CCCN1C(=O)[C@@H](NC(=O)OC(C)(C)C)C(C)C)P(=O)(Oc1ccc(OC)cc1)Oc1ccc(OC)cc1 (mixture of isomers)" quantitative_readout=9900
compound="COC(=O)c1cccc(OP(=O)(Oc2cccc(C(=O)OC)c2)C(CC(C)C)NC(=O)[C@@H]2CCCN2C(=O)[C@@H](NC(=O)OC(C)(C)C)C(C)C)c1 (some centres not stated)" quantitative_readout=76900
compound="CCC(NC(=O)[C@@H]1CCCN1C(=O)[C@@H](NC(=O)OC(C)(C)C)C(C)C)P(=O)(Oc1ccc(SC)cc1)Oc1ccc(SC)cc1 (mixture of isomers)" quantitative_readout=60100
compound=CSc1ccc(OP(=O)(Oc2ccc(SC)cc2)[C@H](NC(=O)[C@@H]2CCCN2C(=O)[C@@H](NC(=O)COc2ccc(OCC(=O)O)cc2)C(C)C)C(C)C)cc1 quantitative_readout=85

For every item below, please supply its Ratio.
1. CSc1ccc(OP(=O)(Oc2ccc(SC)cc2)C(CC(C)C)NC(=O)[C@@H]2CCCN2C(=O)[C@@H](NC(=O)OC(C)(C)C)C(C)C)cc1 (mixture of isomers)
2. CSc1ccc(OP(=O)(Oc2ccc(SC)cc2)C(NC(=O)[C@@H]2CCCN2C(=O)[C@@H](NC(=O)OCc2ccccc2)C(C)C)C(C)C)cc1 (mixture of isomers)
3. CCCCC(NC(=O)[C@@H]1CCCN1C(=O)[C@@H](NC(=O)OC(C)(C)C)C(C)C)P(=O)(Oc1ccc(SC)cc1)Oc1ccc(SC)cc1 (mixture of isomers)
4. CSc1ccc(OP(=O)(Oc2ccc(SC)cc2)C(NC(=O)[C@@H]2CCCN2C(=O)[C@@H](NC(=O)Cn2ccc(=O)n(CC(=O)O)c2=O)C(C)C)C(C)C)cc1 (mixture of isomers)
5. CC(C)c1ccc(OP(=O)(Oc2ccc(C(C)C)cc2)C(NC(=O)[C@@H]2CCCN2C(=O)[C@@H](NC(=O)OC(C)(C)C)C(C)C)C(C)C)cc1 (mixture of isomers)
6. CSCC[C@H](NC(=O)OCc1ccccc1)C(=O)N1CCC[C@H]1C(=O)NC(C(C)C)P(=O)(Oc1ccc(SC)cc1)Oc1ccc(SC)cc1 (mixture of isomers)

1. 11200
2. 6200
3. 9700
4. 140000
5. 2000
6. 6300

For every item below, please supply its Ratio.
1. CSc1ccc(OP(=O)(Oc2ccc(SC)cc2)[C@@H](NC(=O)[C@@H]2CCCN2C(=O)[C@@H](NC(=O)Cn2ccc(=O)n(CC(=O)O)c2=O)C(C)C)C(C)C)cc1
2. CC(C)C(NC(=O)[C@@H]1CCCN1C(=O)[C@@H](NC(=O)OC(C)(C)C)C(C)C)P(=O)(Oc1ccc(Cl)cc1)Oc1ccc(Cl)cc1 (mixture of isomers)
3. CSc1ccc(OP(=O)(Oc2ccc(SC)cc2)C(NC(=O)[C@@H]2CCCN2C(=O)[C@H](COC(C)(C)C)NC(=O)OCc2ccccc2)C(C)C)cc1 (mixture of isomers)
4. COc1ccc(OP(=O)(Oc2ccc(OC)cc2)C(NC(=O)[C@@H]2CCCN2C(=O)[C@@H](NC(=O)OC(C)(C)C)C(C)C)C(C)C)cc1 (mixture of isomers)
5. CSc1ccc(OP(=O)(Oc2ccc(SC)cc2)[C@@H](NC(=O)[C@@H]2CCCN2C(=O)[C@@H](NC(=O)COc2ccc(OCC(=O)O)cc2)C(C)C)C(C)C)cc1

1: 309000; 2: 5000; 3: 4300; 4: 19500; 5: 39200

For every item below, please supply its Ratio.
1. CCc1ccc(OP(=O)(Oc2ccc(CC)cc2)C(NC(=O)[C@@H]2CCCN2C(=O)[C@@H](NC(=O)OC(C)(C)C)C(C)C)C(C)C)cc1 (mixture of isomers)
2. CCc1ccc(OP(=O)(Oc2ccc(CC)cc2)C(C)NC(=O)[C@@H]2CCCN2C(=O)[C@@H](NC(=O)OC(C)(C)C)C(C)C)cc1 (mixture of isomers)
3. CSc1ccc(OP(=O)(Oc2ccc(SC)cc2)C(NC(=O)[C@@H]2CCCN2C(=O)[C@H](CC(C)C)NC(=O)OCc2ccccc2)C(C)C)cc1 (mixture of isomers)

[6000, 1100, 1000]

Recorded Ratio (compound CCC(NC(=O)[C@@H]1CCCN1C(=O)[C@@H](NC(=O)OC(C)(C)C)C(C)C)P(=O)(Oc1ccc(C(C)C)cc1)Oc1ccc(C(C)C)cc1 (mixture of isomers) ): 580

----------
ASSAY_INFO: Solubility in pH 7.4 PBS buffer at […] incubated at 37 degC by HPLC
Type: physicochemical
PARAMETER_MEASURED: solubility (mM)
Answers are plain numbers, in mM.

The examples below pair each entry with its known result.
molecule="CSc1ccc(OP(=O)(Oc2ccc(SC)cc2)C(NC(=O)[C@@H]2CCCN2C(=O)[C@@H](NC(=O)Cn2ccc(=O)n(CC(=O)O)c2=O)C(C)C)C(C)C)cc1 (mixture of isomers)" quantitative_readout=6.22
molecule="COc1ccc(C(=O)N[C@H](C(=O)N2CCC[C@H]2C(=O)NC(C(C)C)P(=O)(Oc2ccc(SC)cc2)Oc2ccc(SC)cc2)C(C)C)cc1 (mixture of isomers)" quantitative_readout=0.17
molecule="CSc1ccc(OP(=O)(Oc2ccc(SC)cc2)C(NC(=O)[C@@H]2CCCN2C(=O)[C@@H](NC(=O)COc2ccc(OCC(=O)O)cc2)C(C)C)C(C)C)cc1 (mixture of isomers)" quantitative_readout=6.23

For every item below, please supply its solubility.
1. CSc1ccc(OP(=O)(Oc2ccc(SC)cc2)C(NC(=O)[C@@H]2CCCN2C(=O)[C@@H](NC(=O)OC(C)(C)C)C(C)C)C(C)C)cc1 (mixture of isomers)
2. CSc1ccc(OP(=O)(Oc2ccc(SC)cc2)C(NC(=O)[C@@H]2CCCN2C(=O)[C@@H](NC(=O)Cn2cc(C)c(=O)n(CC(=O)O)c2=O)C(C)C)C(C)C)cc1 (mixture of isomers)

[0.36, 6.11]
